TESTED ON: T1, human TIM-3 antigen (His-tagged TIM-3 extracellular domain expressed by Ampsource Biopharma Shanghai Inc.) (human, UniProt Q8TDQ0 22-202)
T1 construct: extracellular domain; also called TIM-3-His; not shown: His tag
TEST DESCRIPTION: BLI (ForteBio Octet) as stated; antibody captured by anti-human IgG Fc, antigen in solution, 1:1 model
MEASUREMENT TYPE: kon

Sample answers from the record:
{"BINDER": "humanized anti-TIM-3 antibody AB12S6 (antibody, V domains shown) VH: QVQLQLSGAEVKKPGASVKVSCKASGYTFTNYVMHWVRQAPGQRLEWMGWIDPDNDGIKYSQKFQGRVTLTSDKSASTAYMELSSLRSEDTAVYYCARDFGYVDWFPYWGQGTLVTVSS VL: DIQMTQSPSSMSASVGDRVTITCQASQDVTTALNWYQQKPGKSPKLLIYSASNLETGVPSRFSGSGSGTDFTFTISSLQPEDIATYYCQQHYSIPPTFGGGTNLEIK", "kon": "198000 M⁻¹ s⁻¹"}
{"BINDER": "humanized anti-TIM-3 antibody AB12S7 (antibody, V domains shown) VH: EVQLQLSGAEVKKPGASVKVSCKASGYTFTNYVMHWMRQKPGQRLEWMGWIDPDNDGIKYSQKFQGRVTITRDKSSSTAYMELSSLRSEDTAVYYCARDFGYVDWFPYWGQGTLVTVSS VL: DIVMTQSPSSLSASVGDRVTITCQASQDVTTALNWYQQKSGQSPKLLIYSASNLETGVPSRFSGSGSGTDFTFTISSLQPEDIATYYCQQHYSIPPTFGGGTNLEIK", "kon": "223000 M⁻¹ s⁻¹"}

Please turn your attention to the following entry.
Input line: Item humanized anti-TIM-3 antibody AB12S4 (antibody, human IgG4 S228P, kappa, V domains shown, Human IgG4 S228P (EU) heavy chain and human kappa light chain) VH: EVQLVLSGAEVVKPGASVKMSCKASGYTFTNYVMHWMRQKPGQRLEWIGYIDPDNDGIKYNEKIKGKATLTSDKSSSTAYMELSSLRSEDSAVYYCARDFGYVDWFPYWGQGTTVTVSS VL: DIVMTQSPSSMSTSVGDRVTITCKASQDVTTAVAWYQQKPGKSPKLLIYSASNRYIGVPDRFTGSGSGTDFTFTISSVQPEDIAVYYCQQHYSIPPTFGGGTNLEIKR : provide kon
Output line: 254000 M⁻¹ s⁻¹

Data provenance: patent US20210238282A1
